// values below are reported TGI
System: MALME-3M melanoma
Assay: NCI tumour cell line growth inhibition, 48 h

Before answering, review these 6 worked examples.
Exercise: Give MALME-3M melanoma TGI for COc1ccc(Cc2c3cc(O)c(=O)cc-3ccn2C)cc1
Key: > 88.1 µM

Exercise: Can you check O=C(O)CSc1n[nH]c(=O)[nH]c1=O next?
Key: > 100 µM

Exercise: Quick one: Cc1c(C)c2ccc3oc4ccccc4c3c2oc1=O
Key: > 100 µM

Exercise: Do the same for O=C1[C@H]2ON(c3ccccc3)C(c3ccc([N+](=O)[O-])cc3)[C@H]2C(=O)N1c1ccc(Cc2ccc(N3C(=O)[C@@H]4ON(c5ccccc5)C(c5ccc([N+](=O)[O-])cc5)[C@@H]4C3=O)cc2)cc1 (stereo partly specified) please
Key: > 100 µM

Exercise: COc1ccc(S(=O)(=O)N2C(=O)CCC2C(=O)NC(N)=O)cc1 (stereo unspecified) ?
Key: > 100 µM

Exercise: Then this compound: Cc1ccc(CC(Cc2ccccc2C)C(=O)O)c(C(=O)O)c1 (stereo unspecified)
Key: > 100 µM

The record that follows has no TGI shown yet.
Exercise: Form field - read-out: TGI; system: MALME-3M melanoma; submitted item: CC1=N/C(=C/c2ccc3c(c2)OCO3)C(=O)O1
Key: > 100 µM

----------
Tested on: HCC-2998 colon
Assay: NCI tumour cell line growth inhibition, 48 h
As shown below, each of these compounds has a reported TGI value.

Exercise: What value of measured TGI is listed for CC(=O)O[C@@H]1C[C@]2(C(=O)c3ccccc3)C(=O)C(=O)S[C@]12c1ccccc1 ?
Key: 75.1 µM

Exercise: Field entry: CNC(=O)OCc1nc(SC)n(C)c1CO
Key: > 100 µM

Exercise: Proceed to O=c1c2cc(-c3ccccc3)cnc2sn1-c1ccc(Br)cc1
Key: > 100 µM

Others:
Exercise: Could you tell me which TGI is on file for c1csc(-c2nn3c(C45CC6CC(CC(C6)C4)C5)nnc3s2)c1 ?
Key: > 100 µM

Exercise: What do you have for COc1ccc2c(c1)C(=O)c1c-2n(CCCN(C)C)c(=O)c2ccccc12 ?
Key: 0.955 µM

Exercise: Item: COC(=O)c1c([N+](=O)[O-])ncn1[C@H]1OC[C@@H](OC(C)=O)[C@@H](OC(C)=O)[C@@H]1OC(C)=O
Key: > 100 µM

Exercise: // same read-out, input: N#Cc1ccc(C(O)C(F)(F)c2nc3ccccc3o2)cc1 (configuration not stated)
Key: > 100 µM

Exercise: Then this compound: COc1ccc(C(=O)C(CN(C)C)CN(C)C)cc1
Key: 30 µM

Exercise: Further, for C=CCC1(CN(C)C)CC/C(=C\c2ccc(OC)cc2)C1=O (configuration not stated) ?
Key: > 100 µM

Exercise: Same again, this time with COC(COC(N)=O)C1=C(N2CC2)C(=O)C(C)=C(N2CC2)C1=O (configuration not stated)
Key: 0.311 µM

Exercise: Do the same for Cc1c(C)c2ccc3oc4ccccc4c3c2oc1=O please
Key: > 100 µM

Exercise: And COc1ccc(Cc2c3cc(O)c(=O)cc-3ccn2C)cc1 ?
Key: > 100 µM

Exercise: Request: Cc1nn(CNc2ccccc2C(F)(F)F)c(=S)n1/N=C/c1cccc2cccnc12
Key: > 100 µM

Exercise: // query: Cc1cc(NC2=CC(=O)C(=O)c3ccccc32)no1
Key: 35.2 µM

The measurements presented in this section are drawn from PubChem BioAssay (NCI).
